Here the recorded mass density is given for each entry.
# measurement-context: 303.15 K; 101.33 kPa; Liquid; Vibrating tube method
Respond numerically; units are kg/m3 and should not be typed.

| molecule | mass density (kg/m3) |
| --- | --- |
| CCCCn1cc[n+](C)c1.F[B-](F)(F)F [1-butyl-3-methylimidazolium tetrafluoroborate] | 1200.5 |

Please report the recorded mass density for CCn1cc[n+](C)c1.O=S(=O)([O-])C(F)(F)F [1-ethyl-3-methylimidazolium trifluoromethanesulfonate] . 1381.1

* * *

# test-details: molar heat capacity at constant pressure
# measurement-context: 313.15 K; 101.33 kPa; Liquid; Small sample (50 mg) DSC
Here the recorded molar heat capacity at constant pressure is given for each entry.
Respond numerically; units are J/K/mol and should not be typed.

Example cases with answers are listed next.
| compound | unit-annotation | molar heat capacity at constant pressure |
| --- | --- | --- |
| CCn1cc[n+](C)c1.O=S(=O)([O-])C(F)(F)F [1-ethyl-3-methylimidazolium trifluoromethanesulfonate] | J/K/mol | 369.6 |
| CCCCn1cc[n+](C)c1.O=S(=O)([O-])C(F)(F)F [1-butyl-3-methylimidazolium trifluoromethanesulfonate] | J/K/mol | 432.4 |

Now for a further compound.
Please report the recorded molar heat capacity at constant pressure for CCCCn1cc[n+](C)c1.COS(=O)(=O)[O-] [1-butyl-3-methylimidazolium methyl sulfate] . 423.3

The measurements presented in this section are drawn from the NIST ThermoML archive (doi:10.1016/j.jct.2008.09.002).
